# TEST_PROTOCOL: Cytotoxicity against human HGF cells assessed as cell growth inhibition at 25 uM after 48 hrs by SRB assay relative to control
# Format: cell-based
# RUN_PARAMETERS: read-out: GI
// label = met if inhibition at 48 h, 25 µM is not less than 80%, otherwise not met

COMPOUND	ASSIGNED_CLASS
CCOC(=O)C(C(=O)OCC)C1c2c(ccc(OC)c2OC)-c2ccc3cc4c(cc3c2N1C)OCO4 (configuration not stated)	met
COC(=O)C(C(=O)OC)C1c2c(ccc3c2OCO3)-c2ccc3cc4c(cc3c2N1C)OCO4 (configuration not stated)	met
COc1ccc2c(c1OC)C(C[N+](=O)[O-])N(C)c1c-2ccc2cc3c(cc12)OCO3 (configuration not stated)	not met
CCCCOP(=O)(OCCCC)C1c2c(ccc(OC)c2OC)-c2ccc3cc4c(cc3c2N1C)OCO4 (configuration not stated)	met
CCOP(=O)(OCC)C1c2c(ccc3c2OCO3)-c2ccc3cc4c(cc3c2N1C)OCO4 (configuration not stated)	not met

Now for a further compound.
Does the reported inhibition at 48 h, 25 µM for COc1ccc2c(c1OC)C(C(C)[N+](=O)[O-])N(C)c1c-2ccc2cc3c(cc12)OCO3 (configuration not stated) fall at or above the 80% mark?
met
